# growth inhibition values compiled below
Test: NCI Yeast Anticancer Drug Screen. Data for the wt1 strain (AID 149);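 further: 0% = growth of vehicle-treated wt1 cultures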
Settings: S. cerevisiae wt1 strain (SPY 50644) growth inhibition; at 33.0 µM; stronger effect = higher value
Compounds without any hit were thinned out: in the full panel of roughly 79,000, 15% have a hit.

{"Compound": "CC(=O)OCC(C)Cc1cc2c(cc1Br)OCO2 (stereo not given)", "Reading Unit": "%", "growth inhibition": -2}
{"Compound": "Oc1ccc2c(c1)C(O)CCCC2 (stereo not given)", "Reading Unit": "%", "growth inhibition": -1}
{"Compound": "CC12C(=O)OC(=O)C(c3ccccc31)c1ccccc12", "Reading Unit": "%", "growth inhibition": 2}
{"Compound": "C[C](C)(C)[Ge]([O][Ge]([c]1ccccc1)[c]1ccccc1)([O][Ge]([c]1ccccc1)[c]1ccccc1)[C](C)(C)C", "Reading Unit": "%", "growth inhibition": 68}
{"Compound": "Nc1cc(N)c(N=Nc2cccc3c(S(=O)(=O)O)cccc23)cc1N=Nc1cc([N+](=O)[O-])ccc1O", "Reading Unit": "%", "growth inhibition": 8}

Origin of the recorded values: PubChem BioAssay (NCI)
